Target: PI3K gamma (Homo sapiens, UniProt P48736)
Sequence (P48736 whole entry): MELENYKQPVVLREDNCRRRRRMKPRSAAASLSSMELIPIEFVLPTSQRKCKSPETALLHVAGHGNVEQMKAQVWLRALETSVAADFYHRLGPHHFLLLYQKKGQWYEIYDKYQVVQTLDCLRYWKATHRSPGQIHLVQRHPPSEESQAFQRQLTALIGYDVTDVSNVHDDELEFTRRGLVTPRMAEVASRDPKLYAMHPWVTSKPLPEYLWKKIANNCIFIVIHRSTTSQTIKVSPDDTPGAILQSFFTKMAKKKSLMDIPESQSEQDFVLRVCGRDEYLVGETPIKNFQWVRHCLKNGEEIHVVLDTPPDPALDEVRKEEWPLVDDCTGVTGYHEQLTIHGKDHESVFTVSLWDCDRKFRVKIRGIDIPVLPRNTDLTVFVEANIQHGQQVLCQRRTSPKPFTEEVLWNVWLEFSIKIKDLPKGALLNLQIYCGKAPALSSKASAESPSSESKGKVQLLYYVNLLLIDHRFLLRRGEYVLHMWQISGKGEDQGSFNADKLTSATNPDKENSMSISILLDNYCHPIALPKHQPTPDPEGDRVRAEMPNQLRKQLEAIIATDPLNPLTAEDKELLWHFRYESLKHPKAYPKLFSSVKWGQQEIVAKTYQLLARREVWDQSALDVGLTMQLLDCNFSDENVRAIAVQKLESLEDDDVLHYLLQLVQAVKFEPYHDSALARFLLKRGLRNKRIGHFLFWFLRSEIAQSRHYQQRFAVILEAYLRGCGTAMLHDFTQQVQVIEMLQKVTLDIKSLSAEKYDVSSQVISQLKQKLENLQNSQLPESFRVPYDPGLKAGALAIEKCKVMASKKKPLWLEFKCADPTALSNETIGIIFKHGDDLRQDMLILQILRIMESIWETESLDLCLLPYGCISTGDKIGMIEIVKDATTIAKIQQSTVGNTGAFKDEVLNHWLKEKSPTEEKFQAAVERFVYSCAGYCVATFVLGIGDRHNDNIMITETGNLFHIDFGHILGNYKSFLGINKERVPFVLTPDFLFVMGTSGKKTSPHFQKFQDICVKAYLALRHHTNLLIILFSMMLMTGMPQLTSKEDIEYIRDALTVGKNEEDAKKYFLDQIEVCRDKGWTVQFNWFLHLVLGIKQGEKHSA
Experiment: PI3K gamma in vitro inhibition
Type: biochemical
Settings: read-out: IC50 inhibition PI3K gamma
Let's look at some compounds and their measured IC50.

The examples below pair each entry with its known result.
molecular.string: CN1CCN(c2cc(=O)c3scc(-c4cc5c(c(C(=O)NCc6cccnc6)c4)OCCO5)c3o2)CC1
measured.value: 10 to 45 µM
--
molecular.string: C=CS(=O)(=O)N(c1cccc(-c2csc3c(=O)cc(N4CCOCC4)oc23)c1)S(=O)(=O)C=C
measured.value: < 0.5 µM
--
molecular.string: CN(C)C(=O)c1cc2cnc(Nc3cccc(-c4csc5c(=O)cc(N6CCOCC6)oc45)c3)nc2n1C1CCCC1
measured.value: 1 to 10 µM

Form: compound = "Cc1nn(-c2ccnc(Nc3ccc(-c4csc5c(=O)cc(N6CCOCC6)oc45)cc3)n2)cc1CN1CC(O)C1" ; IC50 = 10 to 45 µM

Form: compound = "Cc1nn(-c2ccnc(Nc3ccc(-c4csc5c(=O)cc(N6CCOCC6)oc45)cc3)n2)cc1CN1CCOCC1" ; IC50 = 10 to 45 µM

Form: compound = "C=CS(=O)(=O)N(c1cc(-c2csc3c(=O)cc(N4CCOCC4)oc23)ccc1OC)S(=O)(=O)C=C" ; IC50 = < 0.5 µM

Form: compound = "CN(C)C(=O)c1cc2cnc(Nc3ccc(-c4csc5c(=O)cc(N6CCOCC6)oc45)cc3C(=O)O)nc2n1C1CCCC1" ; IC50 = 0.5 to 1 µM

Form: compound = "C=CS(=O)(=O)Nc1cc(-c2csc3c(=O)cc(N4CCOCC4)oc23)ccc1OC" ; IC50 = < 0.5 µM

Form: compound = "O=c1cc(N2CCOCC2)oc2c(C#Cc3ccccc3)csc12" ; IC50 = < 0.5 µM

Form: compound = "CN(C)C(=O)c1cc2cnc(Nc3ccc(-c4csc5c(=O)cc(N6CCOCC6)oc45)cc3)nc2n1C1CCCC1" ; IC50 = 1 to 10 µM
